Origin of values: ChEMBL document CHEMBL4000187

# TARGET OR SYSTEM: ATP-citrate synthase (Homo sapiens, UniProt P53396)
# Sequence (P53396 whole entry): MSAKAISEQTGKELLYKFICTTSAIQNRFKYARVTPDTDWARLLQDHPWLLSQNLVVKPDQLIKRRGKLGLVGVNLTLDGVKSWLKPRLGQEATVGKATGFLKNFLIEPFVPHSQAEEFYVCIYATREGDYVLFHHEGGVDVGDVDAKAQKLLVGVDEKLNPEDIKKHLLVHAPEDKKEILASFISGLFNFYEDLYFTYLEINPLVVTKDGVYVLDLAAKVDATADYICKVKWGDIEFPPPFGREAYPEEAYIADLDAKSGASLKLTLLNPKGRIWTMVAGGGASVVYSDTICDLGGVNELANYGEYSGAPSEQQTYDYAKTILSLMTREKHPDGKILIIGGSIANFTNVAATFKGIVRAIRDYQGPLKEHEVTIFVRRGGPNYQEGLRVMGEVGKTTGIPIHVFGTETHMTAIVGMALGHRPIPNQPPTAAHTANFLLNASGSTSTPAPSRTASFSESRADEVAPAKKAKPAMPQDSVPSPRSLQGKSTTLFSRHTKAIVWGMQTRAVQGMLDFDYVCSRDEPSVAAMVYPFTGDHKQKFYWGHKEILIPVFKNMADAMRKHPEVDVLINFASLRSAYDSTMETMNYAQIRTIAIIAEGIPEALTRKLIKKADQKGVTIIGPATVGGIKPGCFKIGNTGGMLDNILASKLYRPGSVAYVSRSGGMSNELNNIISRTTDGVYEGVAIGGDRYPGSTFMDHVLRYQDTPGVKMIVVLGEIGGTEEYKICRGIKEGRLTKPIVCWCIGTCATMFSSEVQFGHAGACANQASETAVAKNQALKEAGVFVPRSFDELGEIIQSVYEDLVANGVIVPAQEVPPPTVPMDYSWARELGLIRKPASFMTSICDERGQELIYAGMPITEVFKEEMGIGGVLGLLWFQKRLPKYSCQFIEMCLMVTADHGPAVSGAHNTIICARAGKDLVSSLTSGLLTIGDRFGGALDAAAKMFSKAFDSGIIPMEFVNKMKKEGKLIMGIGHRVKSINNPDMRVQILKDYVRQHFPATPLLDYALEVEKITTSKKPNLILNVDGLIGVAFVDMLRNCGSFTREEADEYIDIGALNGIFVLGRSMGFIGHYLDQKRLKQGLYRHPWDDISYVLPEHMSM
TEST READOUT: pIC50
pIC50 here is simply -log10 of the concentration when that concentration is written in mol/L.

// known answers, use as guide
| MOLECULAR STRING | pIC50 |
| --- | --- |
| Cc1cc(O)c2c(c1)C(=O)c1c(c(O)c(-c3cccnc3)c(O)c1-c1cccnc1)C2=O | 4.63 |
| Cc1cc(O)c2c(c1)C(=O)c1cc(O)c(-c3cccnc3)c(O)c1C2=O | 4.68 |
| Cc1cc(O)c2c(c1)Cc1c(Cl)c(O)cc(O)c1C2=O | 5.42 |

Task item: Identify pIC50 associated with the molecule Cc1cccc(-c2c(O)cc3c(c2O)C(=O)c2c(O)cc(C)cc2C3=O)c1
Reply: 4.52
